target: CSNK2A2 (human) (UniProt P19784); test: KINOMEscan competition binding; conditions: compound 10.0 µM
Sequence (P19784 whole entry, looked up): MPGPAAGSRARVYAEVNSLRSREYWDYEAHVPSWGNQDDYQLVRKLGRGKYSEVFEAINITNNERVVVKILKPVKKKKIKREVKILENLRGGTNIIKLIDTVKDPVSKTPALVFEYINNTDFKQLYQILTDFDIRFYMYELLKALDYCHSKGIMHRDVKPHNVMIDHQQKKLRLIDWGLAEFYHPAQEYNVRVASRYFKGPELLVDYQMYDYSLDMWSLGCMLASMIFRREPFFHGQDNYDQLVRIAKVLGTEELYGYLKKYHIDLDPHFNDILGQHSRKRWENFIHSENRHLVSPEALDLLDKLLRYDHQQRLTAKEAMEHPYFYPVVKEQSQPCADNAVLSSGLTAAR
measurement.kind: kinase still bound, per cent of control

>  <compound.smiles>
COc1ccc(CNC(=O)Nc2ncc([N+](=O)[O-])s2)cc1

>  <recorded.value>
100%

$$$$
>  <compound.smiles>
Cn1cc(C2=C(c3ccc(Cl)cc3Cl)C(=O)NC2=O)c2ccccc21

>  <recorded.value>
99%

$$$$
>  <compound.smiles>
O=C1Nc2cc(Br)ccc2/C1=C1/Nc2ccccc2/C1=N\O

>  <recorded.value>
8%

$$$$
>  <compound.smiles>
Cc1cnc(-c2cnc(NCCNc3ccc(C#N)cn3)nc2-c2ccc(Cl)cc2Cl)[nH]1

>  <recorded.value>
100%

$$$$

###

Listed here: items and their measured kinase still bound, per cent of control.
target: PHKG1 (human); assay: KINOMEscan competition binding; conditions: compound 10.0 µM
measurement.kind: kinase still bound, per cent of control (%)

>  <compound.smiles>
O=C1Nc2cc(Br)ccc2/C1=C1/Nc2ccccc2/C1=N\O

>  <measurement.kind>
kinase still bound, per cent of control

>  <recorded.value>
15

$$$$
>  <compound.smiles>
Cn1cc(C2=C(c3ccc(Cl)cc3Cl)C(=O)NC2=O)c2ccccc21

>  <measurement.kind>
kinase still bound, per cent of control

>  <recorded.value>
100

$$$$
>  <compound.smiles>
Cc1cnc(-c2cnc(NCCNc3ccc(C#N)cn3)nc2-c2ccc(Cl)cc2Cl)[nH]1

>  <measurement.kind>
kinase still bound, per cent of control

>  <recorded.value>
100

$$$$
>  <compound.smiles>
COc1ccc(CNC(=O)Nc2ncc([N+](=O)[O-])s2)cc1

>  <measurement.kind>
kinase still bound, per cent of control

>  <recorded.value>
97

$$$$

###

biological target: MAP4K1 (human) (UniProt Q92918); test: KINOMEscan competition binding; details: compound 10.0 µM
Sequence (Q92918 whole entry, looked up): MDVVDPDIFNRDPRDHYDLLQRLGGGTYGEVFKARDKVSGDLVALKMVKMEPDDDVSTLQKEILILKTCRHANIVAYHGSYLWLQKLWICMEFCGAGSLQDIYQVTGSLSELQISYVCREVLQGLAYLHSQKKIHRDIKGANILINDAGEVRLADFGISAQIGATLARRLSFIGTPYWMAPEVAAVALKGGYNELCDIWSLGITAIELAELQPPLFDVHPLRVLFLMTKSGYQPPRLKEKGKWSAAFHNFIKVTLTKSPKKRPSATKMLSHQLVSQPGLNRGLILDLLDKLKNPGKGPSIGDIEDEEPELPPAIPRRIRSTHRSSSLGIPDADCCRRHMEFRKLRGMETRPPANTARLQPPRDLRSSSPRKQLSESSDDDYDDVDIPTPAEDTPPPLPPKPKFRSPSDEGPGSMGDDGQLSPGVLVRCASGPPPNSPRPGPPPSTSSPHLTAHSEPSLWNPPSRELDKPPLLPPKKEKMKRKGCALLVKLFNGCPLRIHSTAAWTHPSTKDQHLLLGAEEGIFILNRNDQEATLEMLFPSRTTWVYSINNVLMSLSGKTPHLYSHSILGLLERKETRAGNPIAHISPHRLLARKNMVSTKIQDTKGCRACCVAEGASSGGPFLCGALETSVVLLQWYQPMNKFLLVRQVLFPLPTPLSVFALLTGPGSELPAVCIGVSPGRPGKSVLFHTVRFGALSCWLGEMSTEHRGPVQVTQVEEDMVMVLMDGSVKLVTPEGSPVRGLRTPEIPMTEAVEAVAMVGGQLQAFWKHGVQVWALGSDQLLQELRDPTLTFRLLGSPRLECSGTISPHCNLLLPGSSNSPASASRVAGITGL
measurement.kind: kinase still bound, per cent of control

>  <compound.smiles>
COc1ccc(CNC(=O)Nc2ncc([N+](=O)[O-])s2)cc1

>  <measurement.kind>
kinase still bound, per cent of control

>  <recorded.value>
98%

$$$$
>  <compound.smiles>
Cn1cc(C2=C(c3ccc(Cl)cc3Cl)C(=O)NC2=O)c2ccccc21

>  <measurement.kind>
kinase still bound, per cent of control

>  <recorded.value>
62%

$$$$
>  <compound.smiles>
Cc1cnc(-c2cnc(NCCNc3ccc(C#N)cn3)nc2-c2ccc(Cl)cc2Cl)[nH]1

>  <measurement.kind>
kinase still bound, per cent of control

>  <recorded.value>
100%

$$$$
>  <compound.smiles>
O=C1Nc2cc(Br)ccc2/C1=C1/Nc2ccccc2/C1=N\O

>  <measurement.kind>
kinase still bound, per cent of control

>  <recorded.value>
18%

$$$$

###

biological target: ERBB2 (human) (UniProt P04626); assay: KINOMEscan competition binding; details: compound 10.0 µM
Sequence (P04626 whole entry, looked up): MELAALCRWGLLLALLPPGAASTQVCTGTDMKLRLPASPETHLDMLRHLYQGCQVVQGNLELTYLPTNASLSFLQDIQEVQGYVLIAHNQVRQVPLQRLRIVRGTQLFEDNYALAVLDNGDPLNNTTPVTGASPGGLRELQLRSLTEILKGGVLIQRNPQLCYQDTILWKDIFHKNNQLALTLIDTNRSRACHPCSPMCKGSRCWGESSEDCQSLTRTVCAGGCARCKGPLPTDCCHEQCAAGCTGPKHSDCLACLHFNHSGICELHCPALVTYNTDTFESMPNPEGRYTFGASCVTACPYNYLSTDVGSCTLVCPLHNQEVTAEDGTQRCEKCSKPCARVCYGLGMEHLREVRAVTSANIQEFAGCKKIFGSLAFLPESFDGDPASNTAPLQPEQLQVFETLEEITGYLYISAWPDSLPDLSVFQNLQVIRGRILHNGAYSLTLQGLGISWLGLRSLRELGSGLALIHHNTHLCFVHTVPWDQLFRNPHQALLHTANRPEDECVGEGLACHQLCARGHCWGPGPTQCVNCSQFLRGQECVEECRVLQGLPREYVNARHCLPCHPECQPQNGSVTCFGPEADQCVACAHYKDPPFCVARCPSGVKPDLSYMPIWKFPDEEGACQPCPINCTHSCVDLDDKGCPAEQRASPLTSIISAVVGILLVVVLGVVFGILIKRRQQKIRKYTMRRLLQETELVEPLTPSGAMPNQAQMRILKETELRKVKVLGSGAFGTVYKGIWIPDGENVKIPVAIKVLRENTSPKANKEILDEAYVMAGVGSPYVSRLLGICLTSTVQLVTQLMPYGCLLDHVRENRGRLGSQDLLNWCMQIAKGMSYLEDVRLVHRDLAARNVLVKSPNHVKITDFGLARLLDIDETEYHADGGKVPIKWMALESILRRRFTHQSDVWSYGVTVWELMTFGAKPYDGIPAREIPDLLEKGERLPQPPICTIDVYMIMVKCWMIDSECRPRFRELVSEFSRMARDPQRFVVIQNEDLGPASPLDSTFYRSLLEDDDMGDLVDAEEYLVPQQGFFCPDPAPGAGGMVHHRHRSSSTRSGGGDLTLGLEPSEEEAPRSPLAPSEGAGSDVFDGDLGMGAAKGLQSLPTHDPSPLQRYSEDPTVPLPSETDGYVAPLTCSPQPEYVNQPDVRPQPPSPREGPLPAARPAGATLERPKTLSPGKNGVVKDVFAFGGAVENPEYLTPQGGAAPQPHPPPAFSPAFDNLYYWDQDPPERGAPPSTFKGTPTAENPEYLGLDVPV
Listed here: items and their measured kinase still bound, per cent of control.
measurement.kind: kinase still bound, per cent of control

>  <compound.smiles>
O=C1Nc2cc(Br)ccc2/C1=C1/Nc2ccccc2/C1=N\O

>  <recorded.value>
87%

$$$$
>  <compound.smiles>
Cc1cnc(-c2cnc(NCCNc3ccc(C#N)cn3)nc2-c2ccc(Cl)cc2Cl)[nH]1

>  <recorded.value>
100%

$$$$
>  <compound.smiles>
Cn1cc(C2=C(c3ccc(Cl)cc3Cl)C(=O)NC2=O)c2ccccc21

>  <recorded.value>
100%

$$$$
>  <compound.smiles>
COc1ccc(CNC(=O)Nc2ncc([N+](=O)[O-])s2)cc1

>  <recorded.value>
95%

$$$$
